# tested.on: Calcium-dependent protein kinase 4 (Plasmodium falciparum (isolate 3D7))
# protocol.details: PfCDPK4 kinase inhibitors, biochemical, TCAMS library (AID 1159588)
# assay.context: recombinant PfCDPK4, Kinase-Glo ATP depletion luminescence
Potency and affinity values are given separately. Calls of active or inactive are those of the source. The limit is not given here; nearly all actives have IC50 up to about 0.91 µM.
measure: outcome

Solved cases (5 shown):
[[record]]
molecule = "Cc1ccc2c(C3=CCN(CCCCC4(C)C(=O)Nc5c(F)cccc54)CC3)c(C)[nH]c2c1 (stereo not given)"
measurement = "inactive"

[[record]]
molecule = "CC(C)CCNC(=O)c1cc(C(=O)c2cc(F)ccc2O)cn(CCC(C)C)c1=O"
measurement = "inactive"

[[record]]
molecule = "CC(Cc1ccc(OCCCCOc2ccccc2)cc1)NCCc1ccccc1Cl (stereo not given)"
measurement = "inactive"

[[record]]
molecule = "O=C(NC1CCC(N2CCC3(CC2)C(=O)NCN3c2ccccc2)CC1)c1cc2ccccc2[nH]1 (stereo not given)"
measurement = "inactive"

[[record]]
molecule = "CC(=O)Nc1ccc(OCCN(CC(F)(F)F)c2ccc(C#N)cc2C(F)(F)F)cc1"
measurement = "inactive"


State recorded outcome for all listed molecules.
1. COc1ccc(CC(C)NCC(O)c2cccc(C(F)(F)F)c2)cc1F (stereo not given)
2. CC[C@H]1CN2CC[C@@H]1C[C@H]2[C@H](O)c1cc(-c2cccnc2)nc2ccc(OC)cc12
3. COc1ccc(CCNCc2ccc3nc(N)c(C)cc3c2)cc1
4. COCC(=O)N(Cc1cccc(-c2ccc(CNCCc3ccccc3)cc2)c1)C1CCN(Cc2ccccc2)CC1
5. O=C(/C=C/c1ccc(Cl)c(Cl)c1)NCCC1CCC(N2CCC(c3c[nH]c4ccc(O)cc34)CC2)CC1 (stereo not given)
6. CN(c1cc(NC(=O)c2ccccc2)ccn1)C1CCN(Cc2cccc(F)c2)CC1
7. COc1ccc(C=CC(=O)NC2CCC(CN3CCC(c4c[nH]c5ccccc45)CC3)CC2)cc1OC (stereo not given)

["inactive", "inactive", "inactive", "inactive", "inactive", "inactive", "inactive"]

* * *

Field: tube area decrease. Provide a value for each of the compounds that follow.
# protocol.details: inhibition of endothelial tube formation, primary screen, imaging, VEGF stimulated, CD31 staining, tube area, NPC library (AID 1117340)
# assay.context: VEGF-stimulated ADSC/ECFC co-culture, at 10 µM, stronger effect = higher value
Give bare numbers, in %.

State recorded tube area decrease for all listed compounds.
1. Oc1ccc(Cl)cc1Cc1ccccc1
2. O=c1n(Cl)c(=O)n(Cl)c(=O)n1Cl
3. NCCS[As](SCCN)c1ccc(Nc2nc(N)nc(N)n2)cc1
4. COCC(=O)N(c1c(C)cccc1C)C(C)C(=O)OC (stereo not drawn)

1. 4.6
2. 16.7
3. 21.9
4. -6.8

State recorded tube area decrease for all listed compounds.
1. ClCCN1CCCC1
2. Oc1ccccc1-c1ccccc1
3. Cc1ccc2c(c1)C1CN(C)CCC1N2 (stereo not drawn)
4. CCOP(=S)(OCC)Oc1ccc2c(C)c(Cl)c(=O)oc2c1
5. C[C@]12CC[C@H]3[C@@H](CC[C@@]45O[C@H]4C(O)=C(C#N)C[C@]35C)[C@H]1CC[C@H]2O
6. O=C(O)Cc1ccccc1

1: 9.9; 2: -3.5; 3: -17.5; 4: 41; 5: 28.3; 6: -39.3

* * *

# Tested on: Aerobactin synthetase IucA (Klebsiella pneumoniae, hypervirulent)
# protocol.details: IucA enzyme inhibition, biochemical, LOPAC library, absorbance readout (AID 1346212);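 also: 100% = no compound wells and 0% = no enzyme wells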
# assay.context: IucA enzyme assay, absorbance (OD) readout; stronger effect = lower value; concentration not given here
Field: remaining activity. Provide a value for each of the compounds that follow.
One number for each entry, in %.

Solved cases (5 shown):
[[record]]
compound = "CCCCCCCCCCCCCCSCC(=O)O"
measurement = 105

[[record]]
compound = "CCCCCCC(=O)OC1CC(C)(C)NC(C)(C)C1"
measurement = 109

[[record]]
compound = "C=C/C(C)=C/[C@@]1(C)SC(=O)C(C)=C1O"
measurement = 123

[[record]]
compound = "CS(=O)(=O)Nc1ccc([N+](=O)[O-])cc1Oc1ccccc1"
measurement = 117

[[record]]
compound = "C/C=C1\\C(=O)C[C@H]2[C@@H]3CCC4=CC(=O)CC[C@]4(C)[C@H]3CC[C@]12C"
measurement = 101


State recorded remaining activity for all listed compounds.
1. CC(C)COCC(CN(Cc1ccccc1)c1ccccc1)N1CCCC1 (stereo unspecified)
2. CC1(C)C(=O)N(CCN2CCC(C(=O)c3ccc(F)cc3)CC2)c2ccccc21

[91.4, 118]

State recorded remaining activity for all listed compounds.
1. O=C(O)/C=C/c1cnc[nH]1
2. COc1ccccc1OCC(O)CN1CCN(CC(=O)Nc2c(C)cccc2C)CC1 (stereo unspecified)
3. OCCN1CCN(CCCN2c3ccccc3C=Cc3ccccc32)CC1
4. CN1CCc2c(cc(O)c(O)c2Cl)C(c2cccc(Cl)c2)C1 (stereo unspecified)

1: 101; 2: 97.8; 3: 117; 4: 96.8

* * *

# protocol.details: SU-DIPG-XXV glioma cell viability, MIPE5.0 library, qHTS (AID 1347068);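 as to IC50: cells exposed to compound for 48 hours before viability readout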
Inconclusive results are not listed. Activity calls are given as the source filed them. The limit is not given here; nearly all actives have IC50 up to about 30 µM.
Select the matching outcome among TRUE (active), FALSE (inactive)

Answered examples (5):
[[record]]
compound = "COC(=O)[C@@]12OC[C@]34[C@H]([C@@H](O)[C@@H]1O)[C@@]1(C)CC(=O)C(O)=C(C)[C@@H]1C[C@H]3OC(=O)[C@H](OC(=O)/C=C(\\C)C(C)C)[C@@H]24"
assigned_label = "TRUE"

[[record]]
compound = "CN1C(=O)[C@@H](NC(=O)[C@H](CCC(F)(F)F)[C@H](CCC(F)(F)F)C(N)=O)N=C(c2ccccc2)c2ccccc21"
assigned_label = "FALSE"

[[record]]
compound = "CC1=C(O)C(=O)C=C2C1=CC=C1[C@@]2(C)CC[C@@]2(C)[C@@H]3C[C@](C)(C(=O)O)CC[C@]3(C)CC[C@]12C"
assigned_label = "TRUE"

[[record]]
compound = "Cc1ccccc1-n1c(Cn2ncc3c(N)ncnc32)nc2cccc(C)c2c1=O"
assigned_label = "FALSE"

[[record]]
compound = "CC1(N2CCC(n3c([C@@H]4CCCNC4)nc4ccccc43)CC2)CCCCCCC1"
assigned_label = "TRUE"


// param item: CCOC(=O)c1c(/C(C#N)=C\N)c2ccc(Cl)c(Cl)c2n1C ; yields the recorded call
FALSE

// param item: COC1(CS(=O)c2ccccc2)CCN(CCc2c[nH]c3ccc(F)cc23)CC1 (stereo not drawn) ; yields the recorded call
FALSE

// param item: C[C@]12CC[C@H]3[C@@H](CCC4=CC(=O)CC[C@@H]43)[C@@H]1CC[C@@H]2OC(=O)CCc1ccccc1 ; yields the recorded call
FALSE

* * *

Field: fold change. Provide a value for each of the compounds that follow.
# protocol.details: sensitizers of A549 cells to miR-34 induction, primary screen, imaging, A549 dox-inducible miR-34, nuclei and caspase counts (AID 1347080)
# assay.context: A549 miR-34 inducible, Hoechst nuclei count, 48 h; stronger effect = lower value
Numbers only.

Solved cases (5 shown):
[[record]]
compound = "CN1C[C@H](CO)C=C2c3cccc4[nH]cc(c34)C[C@H]21"
measurement = 0.809

[[record]]
compound = "CC(Cc1ccccc1)NCCC(c1ccccc1)c1ccccc1 (stereo not given)"
measurement = 1.36

[[record]]
compound = "CCN1C[C@@]2(COC)C3[C@@H](OC)[C@H]4[C@@H]1[C@]3(C(OC)C[C@H]2O)C1C[C@@]2(O)[C@H](OC(=O)c3ccccc3)C1[C@]4(OC(C)=O)[C@@H](O)[C@@H]2OC (stereo not given in full)"
measurement = 0.875

[[record]]
compound = "CCC(=O)OC(Cc1ccccc1)(c1ccccc1)C(C)CN(C)C (stereo not given)"
measurement = 0.896

[[record]]
compound = "CN[C@@H]1[C@@H](O)[C@@H](O[C@@H]2[C@@H](O)[C@H](O[C@H]3O[C@H]([C@@H](C)NC)CC[C@H]3N)[C@@H](N)C[C@H]2N)OC[C@]1(C)O (tested in a mixture with another compound)"
measurement = 1.02


State recorded fold change for all listed compounds.
1. CCCCC/C=C\C/C=C\C/C=C\C=C\[C@H](CCCC(=O)O)OO
2. Clc1cc(I)cc(Cl)c1NC1=NCCN1
3. CCCN1CCC[C@H](c2cccc(O)c2)C1
4. CC(O)CN1CCN(CC(=O)[O-])CCN(CC(=O)[O-])CCN(CC(=O)[O-])CC1.[Gd+3] (stereo not given)
5. O=C1Nc2ccc(Cl)cc2C(c2ccccc2Cl)=NC1O (stereo not given)
6. O=C1CC2OCC=C3CN4CC[C@]56c7ccccc7N1C5[C@H]2[C@H]3CC46 (stereo not given in full)
7. CC(N)C(=O)OC(C)(C)Cc1ccc(Cl)cc1 (stereo not given)
8. C[C@](O)(COc1ccc(C#N)cc1)C(=O)Nc1ccc(C#N)c(C(F)(F)F)c1

1: 0.99; 2: 1.15; 3: 1; 4: 0.973; 5: 0.901; 6: 0.917; 7: 1.02; 8: 0.889

State recorded fold change for all listed compounds.
1. CC(=O)OCC1=C(C(=O)[O-])N2C(=O)[C@@H](NC(=O)CCC[C@@H](N)C(=O)[O-])[C@H]2SC1.[Zn+2]
2. COc1cccc2c1cc([N+](=O)[O-])c1c(C(=O)O)cc3c(c12)OCO3
3. C=C[C@H]1CN2CC[C@H]1C[C@@H]2[C@H](O)c1ccnc2ccccc12

1.04
1.04
0.93

meta.source: PubChem BioAssay
